src = PubChem BioAssay AID686971

Assay: qHTS for induction of synthetic lethality in tumor cells producing 2HG: qHTS for the HT-1080-IDH1KD cell line
Settings: HT-1080 IDH1 knockdown viability, ATP luminescence, 48 h; series mostly up to 46.1 µM
In all, about 360,000 compounds went through this assay and about 7,500 (2.1%) were called active. Not shown: some 8% with an inconclusive outcome. Calls follow the shape of the dose curve; as a rule, active = well fitted cell-killing curve with a large enough effect; inconclusive = small, poorly fitted or top-dose-only effect, or effect the other way, or another doubt; inactive = no such curve, though single readings can be large or run the other way. The sample as a whole holds a higher share of actives than the screen did.
Possible outcomes: active, inactive

- MOLECULE: "COc1ccc(CCC(=O)c2ccc(OC)cc2)cc1"
  CLASSIFICATION: "inactive"
- MOLECULE: "CSc1ncccc1C(=O)N1CCCC(Nc2ccc(F)c(F)c2)C1 (stereo unspecified)"
  CLASSIFICATION: "inactive"
- MOLECULE: "COc1ccc(CNC(=O)CCN2C(=O)c3ccccc3C2=O)cc1"
  CLASSIFICATION: "inactive"
- MOLECULE: "Cc1ccccc1-c1ccc2c(c1)O[C@@H](CN(C)Cc1ccc(C(=O)O)cc1)[C@@H](C)CN([C@H](C)CO)S2(=O)=O"
  CLASSIFICATION: "inactive"
- MOLECULE: "CC(=O)Nc1ccc(SCC(=O)NC(=O)c2ccc(Cl)cc2)cc1"
  CLASSIFICATION: "inactive"
- MOLECULE: "COc1ccc(/C=N/NC(=O)CNC(=O)c2ccc(S(=O)(=O)N3CCCC3)cc2)c(OC)c1"
  CLASSIFICATION: "inactive"
- MOLECULE: "CCc1cc(C(=O)N(CC)CC(=O)Nc2c(F)cccc2F)sc1C"
  CLASSIFICATION: "inactive"
- MOLECULE: "Cn1nc(N)c2ncc(C(Cl)(Cl)Cl)nc21"
  CLASSIFICATION: "inactive"
- MOLECULE: "COc1cccc(CNC(=O)[C@@H]2CCCN2C(=O)[C@@H]2CCCN2C(=O)c2ccccc2)c1"
  CLASSIFICATION: "inactive"
- MOLECULE: "COc1cccc(/C=N/NC(=O)CNC(=O)c2ccc(S(=O)(=O)N3CCOCC3)cc2)c1OC"
  CLASSIFICATION: "inactive"
- MOLECULE: "CC1(C)CN(CCc2ccccc2)C(=O)[C@H]1CC(=O)Nc1ccc(Br)cc1"
  CLASSIFICATION: "inactive"
- MOLECULE: "CCOC(=O)/C(=N\\Nc1cc(Cl)ccc1Cl)N1CCN(C)CC1"
  CLASSIFICATION: "active"
- MOLECULE: "CCOC(=O)C1=C(c2ccc(OC)cc2)C(=O)c2ccccc2C1=O"
  CLASSIFICATION: "active"
- MOLECULE: "CCOC(=O)Cc1ncccc1C(=O)Nc1ccc(OC)cc1"
  CLASSIFICATION: "inactive"
- MOLECULE: "CCCNC(=O)C1(C)CCCN(C(=O)c2oc3ccccc3c2C)C1 (stereo unspecified)"
  CLASSIFICATION: "inactive"
- MOLECULE: "CCOC(=O)/C(=N\\Nc1ccccc1Cl)N(C)C1CCS(=O)(=O)C1 (stereo unspecified)"
  CLASSIFICATION: "inactive"

====

Assay: qHTS for induction of synthetic lethality in tumor cells producing 2HG: qHTS for the HT-1080-IDH1KD cell line
Conditions: HT-1080 IDH1 knockdown viability, ATP luminescence, 48 h; series mostly up to 46.1 µM
The whole screen tested about 360,000 compounds, of which about 7,500 (2.1%) were called active. Inconclusive results (about 8%) are left out. Calls come from the whole dose curve; as a rule, active = well fitted cell-killing curve with a large enough effect; inconclusive = small, poorly fitted or top-dose-only effect, or effect the other way, or another doubt; inactive = no such curve, though single readings can be large or run the other way. Shown is part of a subset that was picked to be rich in actives.
Possible outcomes: y for active, n for inactive

- COMPOUND: "Cc1cc(C)c(-c2c(O)c3ccccc3n(C)c2=O)c(C)c1"
  CLASSIFICATION: "n"
- COMPOUND: "Fc1cccc(Cc2c(-c3ccc(Cl)cc3)nc3ccc(Cl)cn23)c1"
  CLASSIFICATION: "n"
- COMPOUND: "Cc1ccccc1OCC(=O)Nc1ccc(N2CCN(C(=O)C(C)C)CC2)c(Cl)c1"
  CLASSIFICATION: "y"
- COMPOUND: "O=c1c2c3c(sc2n(CCN2CCCC2)c(=O)n1Cc1ccccc1)CCCCC3"
  CLASSIFICATION: "n"
- COMPOUND: "Cc1ccc(OCC(=O)Nc2ccc(N3CCN(C(=O)c4ccco4)CC3)cc2)c(C)c1"
  CLASSIFICATION: "n"
- COMPOUND: "Cc1onc(-c2ccccc2Cl)c1C(=O)OCc1nnc(-c2ccccc2)o1"
  CLASSIFICATION: "n"
- COMPOUND: "CCCOc1ccccc1C1CC(=O)Nc2cc3c(cc21)OCO3 (centres undefined)"
  CLASSIFICATION: "y"
- COMPOUND: "COc1ccc(CN2C(=O)C(CC(=O)NC3CCCCC3)CC(C(=O)N3CCOCC3)=C2C)cc1 (centres undefined)"
  CLASSIFICATION: "n"
- COMPOUND: "Cn1cnc(S(=O)(=O)N2C[C@@H](O)COC[C@@H]3O[C@H](CC(=O)NC4CCC4)CC[C@H]32)c1"
  CLASSIFICATION: "n"
- COMPOUND: "CC1=C(C)CC(C(=O)NNC(=O)c2ccccc2O)C(C(=O)O)C1 (centres undefined)"
  CLASSIFICATION: "n"
- COMPOUND: "Cc1onc(-c2ccccc2Cl)c1C(=O)OCC(=O)c1ccccc1"
  CLASSIFICATION: "n"
- COMPOUND: "COc1cccc(C(=O)Nc2ccc3nc4n(c(=O)c3c2)CCCCC4)c1"
  CLASSIFICATION: "n"
- COMPOUND: "COC(=O)C[C@H]1C[C@@H]2c3cc(N(C)C)ccc3O[C@@H]2[C@H](CO)O1"
  CLASSIFICATION: "n"
- COMPOUND: "O=C(COC(=O)c1cccc(Cl)c1Cl)NC1CCCCCC1"
  CLASSIFICATION: "n"
- COMPOUND: "N#CCSc1ccccc1NC(=O)CN1C(=O)NC(CCc2ccccc2)C1=O (centres undefined)"
  CLASSIFICATION: "n"
- COMPOUND: "COC(=O)C1(C(=O)OC)C[C@H](c2ccccc2)N(Cc2ccccc2OC)[C@@H]1c1ccccc1"
  CLASSIFICATION: "n"
- COMPOUND: "COCCNC(=O)C1C(=O)Nc2ccccc2C(=O)N1c1ccc2c(c1)OCCO2 (centres undefined)"
  CLASSIFICATION: "n"
- COMPOUND: "COc1cccc(OCc2cc(C(=O)N3CCN(C(=O)c4ccco4)CC3)no2)c1"
  CLASSIFICATION: "n"
- COMPOUND: "Cc1[nH]c2ccccc2c1C(=O)COC(=O)c1c(-c2ccccc2)noc1C"
  CLASSIFICATION: "y"
- COMPOUND: "Cc1cc(C(=O)CCC(=O)NNC(=O)c2ccccc2O)c(C)s1"
  CLASSIFICATION: "n"
- COMPOUND: "COc1ccc(C=C2CCC3C(CCCC34OCCO4)C2=O)cc1 (centres undefined)"
  CLASSIFICATION: "n"
- COMPOUND: "CCCCCC(=O)N1C[C@H](O)[C@@H](n2cc(COC(=O)c3ccccc3)nn2)C[C@@H]1c1ccc(C)cc1"
  CLASSIFICATION: "n"
- COMPOUND: "COc1cccc(C(=O)Nc2ccc(N3CCCC3)cc2)c1"
  CLASSIFICATION: "y"
- COMPOUND: "CSc1nc2ccc(NC(=O)c3c(F)cccc3F)cc2s1"
  CLASSIFICATION: "n"

====

Test: qHTS for induction of synthetic lethality in tumor cells producing 2HG: qHTS for the HT-1080-IDH1KD cell line
Details: HT-1080 IDH1 knockdown viability, ATP luminescence, 48 h; series mostly up to 46.1 µM
The campaign covered roughly 360,000 compounds. About 7,500 (2.1%) were called active. Inconclusive results (about 8%) are left out. Calls come from the whole dose curve; as a rule, active = well fitted cell-killing curve with a large enough effect; inconclusive = small, poorly fitted or top-dose-only effect, or effect the other way, or another doubt; inactive = no such curve, though single readings can be large or run the other way. What follows is part of a selection rich in actives, with near analogues and random picks from the rest.
Possible outcomes: active, inactive

- COMPOUND: "COc1ccc(C)c(Cn2c(-c3nonc3N)nc3ccccc32)c1"
  CLASSIFICATION: "active"
- COMPOUND: "Nc1nonc1-c1nc2ccccc2n1Cc1ccc(F)cc1"
  CLASSIFICATION: "inactive"
- COMPOUND: "Cc1ccc(C(=O)Nc2ccc(NC(=O)c3cccs3)cc2)c(C)c1"
  CLASSIFICATION: "active"
- COMPOUND: "O=C1C=C(NS(=O)(=O)c2ccccc2)C(=O)c2ccccc21"
  CLASSIFICATION: "inactive"
- COMPOUND: "O=C(/C=C/c1ccc([N+](=O)[O-])o1)NNC(=O)c1ccc(F)cc1"
  CLASSIFICATION: "active"
- COMPOUND: "CC(=O)NN=C(C)c1ccc(NC(=O)C2CC2)cc1"
  CLASSIFICATION: "inactive"
- COMPOUND: "CCn1c(C(O)c2cc(OC)ccc2OC)nc2ccccc21 (stereo unspecified)"
  CLASSIFICATION: "inactive"
- COMPOUND: "CCOC(=O)c1cnc(-n2nc(C)cc2C)nc1NNc1cc(C)nc(-c2ccccc2)n1"
  CLASSIFICATION: "inactive"
- COMPOUND: "COc1ccc(Nc2cc(Sc3ccc(OC)cc3)ncn2)cc1"
  CLASSIFICATION: "inactive"
- COMPOUND: "O=[N+]([O-])c1c(NCCO)cc(Sc2nc3ccccc3s2)c2nonc12"
  CLASSIFICATION: "active"
- COMPOUND: "Cc1cc(C)n(CC(O)CN(c2ccccc2)S(=O)(=O)c2ccc3ccccc3c2)n1 (stereo unspecified)"
  CLASSIFICATION: "inactive"
- COMPOUND: "Oc1ccccc1N1CCN(C(=S)NCc2ccccc2)CC1"
  CLASSIFICATION: "inactive"
- COMPOUND: "CCCCNC(=O)C[C@@H]1C[C@@]2(C(=O)OCC)CCC=C2N(Cc2cccc3ccccc23)C1=O"
  CLASSIFICATION: "inactive"
- COMPOUND: "Fc1cccc(Cc2c(-c3cccc(Cl)c3)nc3ccc(Br)cn23)c1"
  CLASSIFICATION: "inactive"
- COMPOUND: "CCc1noc(C)c1C(=O)NNC(=O)c1ccc(F)cc1"
  CLASSIFICATION: "inactive"
- COMPOUND: "COc1ccc(C(C)(NC(C)=O)c2nc(-c3ccc(S(C)(=O)=O)cc3)cs2)cc1 (stereo unspecified)"
  CLASSIFICATION: "inactive"
- COMPOUND: "Cc1cccc2cc3c(N)c(C(=O)N4CCCc5ccccc54)sc3nc12"
  CLASSIFICATION: "active"
- COMPOUND: "CCN(CC)CCCSc1nc2ccccc2s1"
  CLASSIFICATION: "inactive"
- COMPOUND: "CNC[C@H]1OCc2cnnn2CCCC(=O)N([C@H](C)CO)C[C@@H]1C"
  CLASSIFICATION: "inactive"
- COMPOUND: "CCOC(=O)[C@]12CCCC=C1N(Cc1cccc3ccccc13)C(=O)[C@H](CC(=O)NCC13CC4CC(CC(C4)C1)C3)C2"
  CLASSIFICATION: "active"
- COMPOUND: "O=C(CSc1ncn[nH]1)Nc1ccc(Br)cc1Br"
  CLASSIFICATION: "inactive"
- COMPOUND: "CCCNC(=O)C1(C)CCCN(C(=O)c2cccc(OC(C)=O)c2C)C1 (stereo unspecified)"
  CLASSIFICATION: "inactive"
- COMPOUND: "CC(=O)c1ccc(Oc2cc(C)nc(-n3nc(C)cc3C)n2)cc1"
  CLASSIFICATION: "active"
- COMPOUND: "Oc1ccc(N2CCN(C(=S)NCc3ccccc3)CC2)cc1"
  CLASSIFICATION: "active"
- COMPOUND: "CN(c1ccccc1)S(=O)(=O)c1ccc(C(=O)NCc2cccnc2)cc1"
  CLASSIFICATION: "inactive"
- COMPOUND: "Cc1ccc(C(=O)Nc2nc3ccc(Cl)cc3s2)o1"
  CLASSIFICATION: "inactive"
- COMPOUND: "Cc1c(C(=O)N2CCCc3ccccc32)sc2nc(-c3ccccc3)cn12"
  CLASSIFICATION: "inactive"
- COMPOUND: "CCCCN(CCCC)CCC(O)c1cc2c(Cl)cc(Cl)cc2c2cc(C(F)(F)F)ccc12 (stereo unspecified)"
  CLASSIFICATION: "active"
- COMPOUND: "O=C(NC1=CC(=O)c2ccccc2C1=O)c1ccccc1"
  CLASSIFICATION: "active"
- COMPOUND: "CCCC(=O)N1CCC1(C)C(=O)NCc1ccc(SC)cc1 (stereo unspecified)"
  CLASSIFICATION: "inactive"
- COMPOUND: "COc1ccc([C@H]2C[C@@H](n3cc(COC(=O)c4ccccc4)nn3)[C@H](O)CN2C(=O)c2cccs2)cc1"
  CLASSIFICATION: "inactive"
